Data origin, for the record: PubChem BioAssay (Tox21)

- Method Notes: qHTS assay to identify small molecule antagonists of the thyroid receptor (TR) signaling pathway - cell viability counter screen (AID 743064); also: nearly all actives have a fitted effect of over 50% in size
- Conditions Used: GH3.TRE-Luc viability, CellTiter-Fluor, 24 h; series mostly up to 70.3 µM
Records with an inconclusive call do not appear. The source made the active and inactive calls. Calls follow the shape of the dose curve; as a rule, active = well fitted cell-killing curve with a large enough effect in the repeat runs; inconclusive = weak or mixed curves, or effect the other way; inactive = no such curve, though single readings can be large or run the other way.
Your answer must be one of the following: Yes for active, No for inactive

input: In this assay, the call recorded for `O=C1CCC(=O)N1CO` was what?
output: No

input: In this assay, the call recorded for `Nc1nc(=O)n([C@@H]2CS[C@H](CO)O2)cc1F` was what?
output: No

input: In this assay, the call recorded for CC1CCC(NC(=O)N(CCCl)N=O)CC1 (stereo unspecified) was what?
output: No

input: In this assay, the call recorded for `CNC(=O)[C@H](Cc1c[nH]c2ccccc12)NC(=O)[C@@H](CC(=O)NO)CC(C)C` was what?
output: Yes

input: In this assay, the call recorded for `COc1ccc(C[C@@H](C)NC[C@H](O)c2ccc(O)c(NC=O)c2)cc1` was what?
output: No

input: In this assay, the call recorded for `CCOC(=O)c1c[nH]c2cc(OCC(C)C)c(OCC(C)C)cc2c1=O` was what?
output: No
